Molecular target: recombinant human AMPK complex, containing α2β1γ2 (Homo sapiens, UniProt P54646+Q9Y478)
Construct: hsAMPKα2-552-His, hsAMPKβ1-2-270 and hsAMPKγ-2-569 respectively; hsAMPKβ1-2-270; hsAMPKγ-2-569; His (C)
Sequence (P54646 2-552): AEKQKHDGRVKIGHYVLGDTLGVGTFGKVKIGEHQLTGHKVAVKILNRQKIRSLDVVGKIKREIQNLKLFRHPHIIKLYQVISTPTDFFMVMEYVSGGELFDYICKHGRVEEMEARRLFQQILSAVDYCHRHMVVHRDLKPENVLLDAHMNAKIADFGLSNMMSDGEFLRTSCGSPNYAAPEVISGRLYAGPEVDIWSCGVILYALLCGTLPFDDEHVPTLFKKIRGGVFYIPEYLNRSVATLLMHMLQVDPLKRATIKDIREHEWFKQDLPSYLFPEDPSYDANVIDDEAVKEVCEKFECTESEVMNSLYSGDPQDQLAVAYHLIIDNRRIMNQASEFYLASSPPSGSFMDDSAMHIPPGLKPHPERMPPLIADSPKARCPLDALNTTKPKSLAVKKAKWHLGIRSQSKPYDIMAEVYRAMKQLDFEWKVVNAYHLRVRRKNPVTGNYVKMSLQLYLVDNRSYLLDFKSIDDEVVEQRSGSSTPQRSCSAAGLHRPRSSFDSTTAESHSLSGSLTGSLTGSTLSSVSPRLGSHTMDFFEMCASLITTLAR
Sequence (Q9Y478 2-270): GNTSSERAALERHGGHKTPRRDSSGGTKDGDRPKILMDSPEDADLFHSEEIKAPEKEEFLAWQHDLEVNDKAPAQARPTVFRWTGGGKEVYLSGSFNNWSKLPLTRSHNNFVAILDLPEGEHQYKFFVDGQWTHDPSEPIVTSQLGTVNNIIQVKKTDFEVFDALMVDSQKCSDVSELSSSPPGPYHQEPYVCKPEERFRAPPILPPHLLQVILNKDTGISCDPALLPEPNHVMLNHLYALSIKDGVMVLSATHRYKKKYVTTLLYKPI
Sequence (Q9UGJ0 2-569 partner limits assumed): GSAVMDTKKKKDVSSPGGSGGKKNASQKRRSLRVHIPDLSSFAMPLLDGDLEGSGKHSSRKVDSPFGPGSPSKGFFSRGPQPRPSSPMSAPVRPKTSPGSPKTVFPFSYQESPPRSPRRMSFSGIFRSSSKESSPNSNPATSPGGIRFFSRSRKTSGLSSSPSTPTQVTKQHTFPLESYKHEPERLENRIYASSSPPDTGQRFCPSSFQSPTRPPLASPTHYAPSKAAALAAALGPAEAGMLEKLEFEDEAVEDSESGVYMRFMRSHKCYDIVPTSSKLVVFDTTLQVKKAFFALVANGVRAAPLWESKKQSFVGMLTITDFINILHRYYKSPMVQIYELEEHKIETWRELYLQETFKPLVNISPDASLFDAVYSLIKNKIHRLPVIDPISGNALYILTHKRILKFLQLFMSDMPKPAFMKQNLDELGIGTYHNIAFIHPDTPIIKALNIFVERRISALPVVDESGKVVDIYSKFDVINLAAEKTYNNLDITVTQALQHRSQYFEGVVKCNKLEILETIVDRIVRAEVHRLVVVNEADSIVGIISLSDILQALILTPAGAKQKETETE
Assay: AMPK in vitro activation assay (HTRF)
Details: HTRF, recombinant human α2β1γ2 AMPK, 200 μM ATP, biotinylated ACC-CREBp peptide; repeat determinations on separate lines
Procedure: The recombinant human AMPK complex, containing α2β1γ2 was obtained from baculovirus expression system and generated by cotransfection in Spodoptera frugiperda 21 (Sf21). […] A homogeneous time-resolved fluorescence (HTRF) assay was used (Li et al, Anal. Biochem. (2003) 321, 151-156) to identify compounds with stimulating activity for the recombinant human AMPK. […] The fluorescence signal was measured using an Envision multireader (Perkin Elmer). […]
pEC50: −log10 of the molar value. Where a name gives a salt, the structure may show the parent alone.
We'd kindly ask you to apply these pEC50 classes: bottom bin (below 7), middle bin (7 to below 8), top bin (8 or more)

Exercise: Which of the defined bands does the recorded pEC50 of O=C1Nc2cc(Cl)c(-c3ccc(N4CCOCC4)cc3)cc2C1=C(O)c1cccc(C(F)F)c1 [Compound 39] sit within?
Key: bottom bin

Exercise: Which of the defined bands does the recorded pEC50 of CN1CCN(c2cccc(C(O)=C3C(=O)Nc4cc(Cl)c(-c5ccc(N6CCOCC6)cc5)cc43)c2)CC1 [Compound 93, hydrochloride] sit within?
Key: middle bin

Exercise: Which of the defined bands does the recorded pEC50 of O=C1Nc2cc(Cl)c(-c3ccc(C4(CO)CC4)cc3)cc2C1=C([O-])c1ccccc1F.[Na+] [Compound 47, sodium salt] sit within?
Key: middle bin

Exercise: Which of the defined bands does the recorded pEC50 of Cc1cc(C(O)=C2C(=O)Nc3cc(Cl)c(-c4ccc(O)cc4)cc32)on1 [Compound 33] sit within?
Key: bottom bin

Exercise: Which of the defined bands does the recorded pEC50 of COc1cc(C(O)=C2C(=O)Nc3cc(Cl)c(-c4ccc(N5CCC(O)C5)cc4)cc32)on1 (stereo not drawn) [Compound 156] sit within?
Key: top bin

Exercise: Which of the defined bands does the recorded pEC50 of COc1cc(C(O)=C2C(=O)Nc3cc(F)c(-c4ccc(-c5cccc(OC)c5O)cc4)c(F)c32)on1 [Compound 92] sit within?
Key: top bin

Exercise: Which of the defined bands does the recorded pEC50 of Cc1nocc1C(O)=C1C(=O)Nc2cc(Cl)c(-c3ccc(N4CCOCC4)cc3)cc21 [Compound 60] sit within?
Key: bottom bin

Exercise: Which of the defined bands does the recorded pEC50 of Cc1cc(C(O)=C2C(=O)Nc3cc(Cl)c(-c4ccc(-c5csc(N)n5)cc4)cc32)on1 [Compound 37] sit within?
Key: middle bin

Exercise: Which of the defined bands does the recorded pEC50 of Cc1nc(C)c(C(O)=C2C(=O)Nc3cc(Cl)c(-c4ccc(N5CCOCC5)cc4)cc32)s1 [Compound 15] sit within?
Key: middle bin

Exercise: Which of the defined bands does the recorded pEC50 of CCOc1ccc(-c2cc3c(cc2Cl)NC(=O)C3=C(O)c2cc(C)no2)cc1 [Compound 66] sit within?
Key: bottom bin

Exercise: Which of the defined bands does the recorded pEC50 of O=C1Nc2cc(Cl)c(-c3ccc(C4(CO)CC4)cc3F)cc2C1=C(O)c1cc(C2CC2)no1 [Compound 113] sit within?
Key: top bin
